TARGET OF ASSAY: Solute carrier family 2, facilitated glucose transporter member 1 (Homo sapiens) (UniProt P11166)
Sequence (P11166 whole entry): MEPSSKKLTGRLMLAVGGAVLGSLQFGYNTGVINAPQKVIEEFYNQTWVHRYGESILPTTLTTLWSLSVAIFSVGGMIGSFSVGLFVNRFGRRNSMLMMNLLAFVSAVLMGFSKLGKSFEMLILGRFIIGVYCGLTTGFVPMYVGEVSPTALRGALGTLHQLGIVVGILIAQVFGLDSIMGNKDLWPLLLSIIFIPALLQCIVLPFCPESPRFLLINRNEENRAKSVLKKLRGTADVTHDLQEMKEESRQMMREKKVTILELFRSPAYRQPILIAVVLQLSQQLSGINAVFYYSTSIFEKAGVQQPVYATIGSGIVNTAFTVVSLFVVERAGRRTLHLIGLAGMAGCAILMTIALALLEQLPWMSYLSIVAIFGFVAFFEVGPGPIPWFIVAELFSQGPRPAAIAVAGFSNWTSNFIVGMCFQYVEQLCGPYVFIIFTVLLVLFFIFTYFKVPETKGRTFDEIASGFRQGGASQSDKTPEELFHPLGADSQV
PROCEDURE DETAILS: ST_JUDE_LEISH: Cytotoxicity at 2uM final concentration against transgenic Leishmania Mexicana promastigotes LmGLUT1 that are glucose transport deficient and complemented with the human glucose transporter GLUT1. Activity is measured by DNA content using SYBR green in vitro
Type: functional
METRIC NAME: inhibition (%)
Give the number; % is assumed, so skip it.

Worked set:
Query block: Look up inhibition for this molecule: O=C(NCC1CC1)C1CCN(C(c2ccccc2)c2cc(F)cc(F)c2)CC1 (centres undefined)
Result block: 3.61

Query block: Ok, now CN1CCC(Oc2ccc(CN3CC[C@H](NC(=O)c4cccc(C#N)c4)C3)c3ccccc23)C1 (some centres undefined)
Result block: -0.8

Query block: Ok, now CCN1C(c2ccc(Cl)cc2)C(CNCc2ccccc2O)CC1(C)CO (centres undefined)
Result block: 8.9

Continuing:
Query block: Look up inhibition for this molecule: `CCCNCc1ccc(-c2ccc(CN(Cc3cccs3)C(=O)C3CCN(C)CC3)cc2)nc1`
Result block: 2.14

Query block: Ok, now `COc1cc(NC(=O)c2sc(-c3ccc(Cl)cc3)cc2Cl)ccc1OCCN1CCCC1`
Result block: 9.58

Query block: Ok, now `OCCN1CCN(c2nc(Nc3cccc(F)c3)c3cnn(-c4ccccc4)c3n2)CC1`
Result block: 3.91

Query block: Ok, now `Fc1ccc2[nH]c(-c3ccc(-c4ccc(CN5CCC(CCN6CCCCC6)CC5)cc4)s3)nc2c1`
Result block: 5.18

Query block: Ok, now `CC1(C)N=C(N)N=C(N)N1OCc1cc2ccccc2cc1CON1C(N)=NC(N)=NC1(C)C`
Result block: 1.9

Query block: Ok, now `Cc1cccc2nc(-c3ccc(-c4ccc(CN5CCCCC5)cc4)cc3)[nH]c12`
Result block: 19.2

###

TARGET OF ASSAY: Hexose transporter 1 (Plasmodium falciparum) (UniProt O97467)
PROCEDURE DETAILS: ST_JUDE_LEISH: Cytotoxicity at 2uM final concentration against transgenic Leishmania Mexicana promastigotes LmPfHT that are glucose transport deficient and complemented with the Plasmodium falciparum hexose transporter. Activity is measured by DNA content using SYBR green in vitro
Assay type: functional
METRIC NAME: inhibition (%)
Give the number; % is assumed, so skip it.

Query block: Look up inhibition for this molecule: `CC(C)COc1cc(C(=O)Nc2cnc3ccccc3c2)ccc1[N+](=O)[O-]`
Result block: 10.8

Query block: Ok, now `COc1ccc2ncc(Cl)c(CCN3C[C@H](CNCc4ccc5c(n4)NC(=O)CS5)[C@H](O)C3)c2n1`
Result block: 2.07

###

TARGET OF ASSAY: Solute carrier family 2, facilitated glucose transporter member 1 (Homo sapiens)
PROCEDURE DETAILS: ST_JUDE_LEISH: Cytotoxicity at 2uM final concentration against transgenic Leishmania Mexicana promastigotes LmGLUT1 that are glucose transport deficient and complemented with the human glucose transporter GLUT1. Activity is measured by DNA content using SYBR green in vitro
Type: functional
Listing of entries alongside the reported inhibition.
Give the number; % is assumed, so skip it.

Query block: Look up inhibition for this molecule: CCc1ccc(CN2CCC(CNC(=O)c3cc(-c4ccccc4F)cs3)C2)cc1 (stereo not given)
Result block: 1.55

Continuing:
Query block: Look up inhibition for this molecule: CC(CN(C)C)C(=O)Nc1cccc(-c2ccc(-c3nc4ccccc4[nH]3)s2)c1 (stereo not given)
Result block: 9.63

Query block: Ok, now `N=C(N)Nc1nc(-c2cccc(NC(=O)C(F)(F)F)c2)cs1`
Result block: 2.35

###

Listing of entries alongside the reported inhibition.
TARGET OF ASSAY: Hexose transporter 1 (Plasmodium falciparum)
PROCEDURE DETAILS: ST_JUDE_LEISH: Cytotoxicity at 2uM final concentration against transgenic Leishmania Mexicana promastigotes LmPfHT that are glucose transport deficient and complemented with the Plasmodium falciparum hexose transporter. Activity is measured by DNA content using SYBR green in vitro
Format: functional
Give the number; % is assumed, so skip it.

Worked set:
Query block: # query: inhibition | item `COc1cc2nc(NCCCOC(C)C)n3nc(-c4ccccc4)nc3c2cc1OC` | system: Hexose transporter 1 (Plasmodium falciparum)
Result block: 10.4

Query block: Ok, now `COc1ccc(-c2cccc(NC(=O)c3ccc(Cl)cc3)c2)cc1CN1CCNCC1`
Result block: 0.49

Query block: Ok, now CC1CN(c2cnn(Cc3cccc(NC(=O)Nc4cccc(C(F)(F)F)c4)c3)c(=O)c2Cl)CC(C)N1 (centres undefined)
Result block: 8.17

Query block: Ok, now `COc1ccc(-c2cccc(NC(=O)c3cccc(Cl)c3)c2)cc1CN(C)CCN(C)C`
Result block: 0.75

Continuing:
Query block: # query: inhibition | item `Oc1ccc(CCNc2nc(NCCCOc3cccc(-c4ccccc4)c3)nc(N3CCNCC3)n2)cc1` | system: Hexose transporter 1 (Plasmodium falciparum)
Result block: 2.83

###

TARGET OF ASSAY: Glucose transporter (Leishmania mexicana) (UniProt O61059)
PROCEDURE DETAILS: ST_JUDE_LEISH: Cytotoxicity at 2uM final concentration against transgenic Leishmania Mexicana promastigotes LmGT2 that are glucose transport deficient and complemented with the L. Mexicana glucose transporter 2. Activity is measured by DNA content using SYBR green in vitro
Format: functional
Listing of entries alongside the reported inhibition.
Number first, unit second.

Query block: Look up inhibition for this molecule: `Fc1ccc2[nH]ccc(=NN=CC=Cc3ccccc3)c2c1`
Result block: -2.56%

Query block: Ok, now COc1cccc(C(=O)NC(c2ccc(Cl)cc2Cl)c2cc(Cl)c3cccnc3c2O)c1 (stereo not drawn)
Result block: 1.53%

Query block: Ok, now `Cc1nc(C)c(-c2ccc(Oc3cc(Cl)cc(Cl)c3)cc2)c(O)c1Cl`
Result block: 0.49%

Query block: Ok, now `Cc1nnnn1-c1ccc(C(=O)N2CCC3(CC2)CN(Cc2ccc(Cl)c(Cl)c2)C(=O)O3)cc1`
Result block: 6.87%

Query block: Ok, now `COc1cc(NC(=O)c2sc(-c3ccc(Cl)cc3)cc2NC(=O)c2ccncc2)ccc1OCCN1CCCC1`
Result block: 0.97%

Query block: Ok, now `Cc1ccc(Nc2nc3cc(N(C)c4ccnc(Nc5cccc(CCS(C)(=O)=O)c5)n4)ccc3n2C)cc1`
Result block: 3.82%

Query block: Ok, now `CCOc1ccc(Br)cc1/C=C/C(=O)Nc1ccc(C2CCN(C)CC2)cc1`
Result block: 5.47%

Query block: Ok, now CCCCCC(=O)N1CCOC(CCN2CCC(c3ccccc3)CC2)(c2ccc(Cl)c(Cl)c2)C1 (stereo not drawn)
Result block: 0.92%

Query block: Ok, now `O=C(NCCCN1CCCCC1)c1cccc(Nc2nccc(Nc3ccc(Oc4ccccc4)cc3)n2)c1`
Result block: -2.53%

Query block: Ok, now `O=C(/C=C/c1ccc(Cl)c(Cl)c1)NCCCCCN1CCCN(C(=O)Nc2ccc(F)c(Cl)c2)CC1`
Result block: 3.64%

Continuing:
Query block: Look up inhibition for this molecule: `COc1ccc(CNCc2ccsc2)cc1-c1ccc(S(=O)(=O)NCCN2CCCC2)c(C)c1`
Result block: -4.07%

###

TARGET OF ASSAY: Glucose transporter (Leishmania mexicana)
PROCEDURE DETAILS: ST_JUDE_LEISH: Cytotoxicity at 2uM final concentration against transgenic Leishmania Mexicana promastigotes LmGT2 that are glucose transport deficient and complemented with the L. Mexicana glucose transporter 2. Activity is measured by DNA content using SYBR green in vitro
Format: functional
METRIC NAME: inhibition (%)
Give the number; % is assumed, so skip it.

Query block: Look up inhibition for this molecule: `CCc1cn(CCc2ccccc2)c2ccc(C(=O)N[C@@H](Cc3ccccc3)[C@H](O)CNC(C)(C)CCCC(C)C)cc12`
Result block: -2.99

Query block: Ok, now `O=C(Nc1ccc(F)cc1)NC1CCN(c2ccnc3cc(Cl)ccc23)CC1`
Result block: 1.68

Query block: Ok, now Cc1cccc2nc(-c3cccc(-c4ccc(C(=O)N5CCCCC5C(C)O)cc4)c3)[nH]c12 (configuration not stated)
Result block: 5.64

Query block: Ok, now `CN(C)C1CCN(Cc2ccc(N3CCN(Cc4cccc5[nH]ccc45)CC3)nc2)CC1`
Result block: 2.99

Query block: Ok, now `COc1ccc2[nH]ccc(=NN=Cc3ccc(N(C)C)cc3)c2c1`
Result block: 0.57

Query block: Ok, now CCCCC1=CC2C(=O)C(C(=O)OC)=CN=C2C=C1OCc1ccccc1 (configuration not stated)
Result block: -1.77

Query block: Ok, now `Nc1cccc(C=CC(=O)N=c2cc[nH]c3ccccc23)c1`
Result block: -2.1

Query block: Ok, now `COc1ccc(CNCc2ccccc2)cc1-c1cccc(S(=O)(=O)NCCN2CCCC2)c1`
Result block: -3.15

Query block: Ok, now COc1ccc2nccc([C@@H](O)CN3CCC(NC(=O)C(c4ccccc4C)N4CCC(Cc5ccccc5)CC4)CC3)c2c1 (some centres not stated)
Result block: 2.38

Query block: Ok, now `Cc1cc(N[C@@H](Cc2ccccc2)C(=O)NCc2cccs2)nc(NCC2CCCCC2)n1`
Result block: -0.41

Query block: Ok, now `CCN(CC)CCN(Cc1ccc(-c2ccc(C(F)(F)F)cc2)cc1)C(=O)Cn1c(CCc2cccc(F)c2F)nc(=O)c2ccc(C)cc21`
Result block: 0.22

Query block: Ok, now `CCCCN(CCCC)CCOc1cc2c(cc1OC)CCN2C(=O)/C=C/c1ccccc1Cl`
Result block: -0.32

Query block: Ok, now Brc1cc(Br)c2c(c1)C(NCCCNc1nc3ncccc3[nH]1)CCN2 (configuration not stated)
Result block: 73.5
